We begin with a simple list: items and their reported IC50.
target: human neuronal constitutive NOS (nNOS) (Homo sapiens (Human), UniProt P29475); test: Human nNOS enzyme assay, radiometric [3H]L-arginine to [3H]L-citrulline; details: read-out: nNOSh; Table I; human NOS; dihydrochloride or monohydrochloride salts;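 also: recombinant human nNOS expressed in baculovirus-infected Sf9 cells, enzyme activity measured radiometrically as turnover of [3H]L-arginine into [3H]L-citrulline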
The answer is to be given in µM; state only the numeric part.

compound="CCN1CCC(c2c[nH]c3ccc(NC(=N)c4cccs4)cc23)CC1 [Compound 62]" observable=IC50 endpointunit=µM number=2.43
compound="CN1CCC[C@H]1Cc1c[nH]c2ccc(NC(=N)c3ccco3)cc12 [Compound 107]" observable=IC50 endpointunit=µM number=2.52

### Prompt Reported IC50 for CN1CC=C(c2c[nH]c3ccc(NC(=N)c4ccco4)cc23)CC1 [Compound 46] : what is it?
### Response 1.78

### Prompt Need IC50, item CN1CCC[C@H]1Cc1c[nH]c2ccc(NC(=N)c3cccs3)cc12 [Compound 105]
### Response 0.82

### Prompt Reported IC50 for N=C(Nc1ccc2[nH]cc(-c3ccncc3)c2c1)c1cccs1 [Compound 73] : what is it?
### Response 2.2

### Prompt // lookup IC50 for CN1CCC[C@@H]1Cc1c[nH]c2ccc(NC(=N)c3ccco3)cc12 [Compound 106]
### Response 2.08

### Prompt Quick one: IC50 for CN(C)CCc1c[nH]c2ccc(NC(=N)c3cccs3)cc12 [Compound 18] ?
### Response 2.6

### Prompt Suppose we examine the compound CN1CC=C(c2c[nH]c3ccc(CNC(=N)c4cccs4)cc23)CC1 [Compound 51] ; what IC50 value has been reported?
### Response 1.19
